Target: T1, CD70 on cells (CHO-CD70, JVM-3, U266, Raji, THP-1, T cells) (human, UniProt P32970 1-193)
T1 construct: whole, on cells; also called cell-surface CD70
T1 sequence (looked up): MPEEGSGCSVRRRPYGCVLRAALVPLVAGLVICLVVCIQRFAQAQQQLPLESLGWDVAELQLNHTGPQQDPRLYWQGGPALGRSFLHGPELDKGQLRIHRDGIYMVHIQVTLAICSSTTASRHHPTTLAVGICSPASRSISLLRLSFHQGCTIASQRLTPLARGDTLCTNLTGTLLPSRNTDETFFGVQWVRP
Assay: 1.25 µg/mL scFv on CHO-CD70 cells
readout-kind: cell binding
No unit in the answer, please; the number alone is enough.

{"columns": ["binder", "measured-result"],
 "data": [
  ["43-TC4-VII-C04 (scFv, His-tagged) scFv: QVQLLESGGGLVQPGRSLRLSCAASGFTFDDYAMHWVRQAPGKGLEWVSGISWNSGSIGYADSVKGRFTISRDNAKNSLYLQMNSLRAEDTAVYYCARDLVYYYGMDVWGQGTTVTVSSGGSGGSGGSGGSQSVLTQPPSVSGTPGQGVSISCSGSSSNIGWKTVNWYQQVPGMAPKLLIYSDNQRPSGVPDRFSGSKSATSASLAISGLQSEDEADYYCASWDASVNAPVFGGGTKLTVL", 723000],
  ["39-TC6-IV-B08 (scFv, His-tagged; also called 1885) scFv: QVQLVESGGGVVQPGGSLRLSCAASGFTFSSYAMHWVRQAPGKGLEWVAVISYDGSNKYYADSVKGRFTISRDNSKNTLYLQMNSLRAEDTAVYYCARDGHPYYYGMDVWGQGTTVTVSSGGSGGSGGSGGSQSALTQPASVSGSPGQSITISCTGTSSDVGDYNYVSWYQHHPGKAPKLMIYDVSNRPSGVSNRFSGSKSGNTASLTISGLQAEDEADYYCGSYTGSDTWVFGGGTKVTVL", 52200],
  ["51-TC7-VIII-G06 (scFv, His-tagged) scFv: QVQLLESGGGLVQPGRSLRLSCAASGFTFDDYAMHWVRQAPGKGLEWVSGITWNSGSIGYADSVKGRFTISRDNAKNSLYLQMNSLRAEDTAVYYCAREVAARPFYYYGMDVWGQGTTVTVSSGGSGGSGGSGGSQSVLTQPPSVSVAPGKTARITCGGNNIGSKSVHWYQQKPGQAPVLVVYDDSDRPSGIPERFSGSNSGNTATLTISGTQAMDEADYYCQAWDSSTVFGGGTKLTVL", 170000],
  ["30-TC1.2-I-C08-1 (scFv, His-tagged) scFv: QMQLVQSGAEVKKPGASVKVSCKASGYTFTSYGISWVRQAPGQGLEWMGWINPNTGGTDYAQKFQGRVTITRDTSITTGYMELSRLRSDDTAVYYCARHYYYGMDVWGQGTTVTVSSGGSGGSGGSGGSDIQLTQSPSSLSASVGDRVTITCQASQDISNYLNWYQQKPGKAPKLLIYDASNLETGVPSRFSGSGSGTDFTFTISSLQPEDIATYYCQQYDNLPLTFGGGTKVEIK", 503000]
]}

Item 52-TC7-VIII-C02 (scFv, His-tagged) scFv: QVQLLESGGGVVQPGRSLRLSCAASGFTFSSYGMHWVRQAPGKGLEWVAVISYDGSNKYYADSVKGRFTISRDNSKNTLYLQMNSLRAEDTAVYYCAKGAYYYGSVSGMDVWGQGTTVTVSSGGSGGSGGSGGSSYELTQPVSVSVALGQTARLTCAGNNIGSKNVHWYQQKPSQAPVLVIYNDNIRPNFGIPERFSGSNSGNTATLTISSAQAGDEADYYCQVWDSSTAEVFGGGTKLTVL has what recorded cell binding?
430000

Item 62-TC7-V-D08 (scFv, His-tagged) scFv: QVQLQQWGAGLLKPSETLSLTCAVYGGSFSGYYWSWIRQPPGKGLEWIGEINHSGSTNYNPSLKSRVTISVDTSKNQFSLKLSSVTAADTAVYYCARVARGKGAFDIWGQGTMVTVSSGGSGGSGGSGGSQSALTQPASVSGSPGQSITISCTGTSSDVGGYNYVSWYQQHPGKAPKLLIYEVSSRPSGVSNRFSGSKSGNTASLTISGLQAEDEADYYCNSYTNSGSWVFGGGTKVTVL has what recorded cell binding?
286000

Item 60-TC7-VII-C02 (scFv, His-tagged) scFv: QVQLQQWGAGLLKPSETLSLTCAVYGGSFSGYYWSWIRQPPGKGLEWIGEINHSGSTNYNPSLKSRVTISVDTSKNQFSLKLSSVTAADTAVYYCARSPLWFGPPDAFDIWGQGTMVTVSSGGSGGSGGSGGSQSALTQPPSASGSPGQSVSISCTGTSSDVGGYNYVSWYQQHPGKAPKLIIYDVDKRPSGIPERFSGSNSGNTATLTISGTQAMDEADYYCQAWDSSTEVVFGGGTKVTVL has what recorded cell binding?
458000

Data credit: patent US20240252641A1
